Molecular target: Bcl-2-like protein 10 (Homo sapiens) (UniProt Q9HD36)
Assay: Bcl-B/TR3 peptide binding disruption – biochemical, fluorescence polarization, FITC-TR3 peptide, selectivity assay for Bfl-1 inhibitor project, primary screen (AID 748)
Settings: FP displacement of FITC-TR3 peptide from Bcl-B; at 20 µM
Among all 96,000 compounds or so, about 100 (0.1%) were called active.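 How the source made its calls: active means displacement above 50% at 20 µM plus a fluorescence interference ratio under 1.5; inactive means the rest.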 The full list was thinned out, with actives kept by preference. Entries with a potency or affinity are not part of this list.
Log the outcome using a class from t = active, f = inactive

[
  {
    "compound": "O=c1cccc2n1CC1CC2CN(C(c2ccccc2)c2sc3ncnn3c2O)C1 (centres undefined)",
    "study system": "Bcl-2-like protein 10 (Homo sapiens) (UniProt Q9HD36)",
    "assigned label": "f"
  }
]

Input line: Any idea what this test logged for ClC1=CCC2CN(CCN3CCCCC3)CC2C1 (centres undefined) ?
Output line: t

Input line: So what was the verdict on CCC(=NCC1CCCO1)c1c(O)n(-c2ccc(Cl)cc2)c(=O)[nH]c1=O (centres undefined) in this test?
Output line: f

Input line: Recorded test outcome, item COc1ccc(C(=O)C2(C)N(O)C(C)C(c3cccs3)=[N+]2[O-])cc1 (centres undefined)
Output line: f
